Tested on: guinea-pig tracheal ring preparations
Assay: Relaxation of guinea-pig tracheal smooth muscle in vitro (Example A.1.a)
Type: cell-based, Guinea-pig (Dunkin-Hartley)
Conditions: Cavia porcellus; guinea-pig tracheal rings, spontaneous tone, 37° C., cumulative; pure or substantially pure [3S] enantiomer for Example 1; read-out: IC50 (concentration required to increase relaxation by 50%)
measure name: IC50 (µM)
One number for each entry, in µM.

Give recorded IC50. COc1cc(OC)cc(C2=N[C@H](CO)Cc3cc(OC)c(OC)cc32)c1 [Example 1]
0.18

// below: IC50 requested for another compound
Give recorded IC50. Cn1c(=O)c2[nH]cnc2n(C)c1=O [aminophylline]
130
